# Target of assay: panel of more than 300 wild-type and mutant kinases (313 kinase panel) (Homo sapiens)
# Assay procedure: Kinase profiling in a biochemical assay panel (mobility shift assays and ELISA), %-inhibition at 1 μM; selectivity entropy
# Measurement conditions: kinase CDK7/CycH/MAT1; 1 μM compound
Parameter %-inhibition, CDK7/CycH/MAT1: see the listing below.

# Line notation, %-inhibition, CDK7/CycH/MAT1
rows = [
    ("C[C@@H](Oc1cc(-c2cnn(C3CCNCC3)c2)cnc1N)c1c(Cl)ccc(F)c1Cl", "58%"),
    ("CO[C@H]1C[C@@H]2CC[C@@H](C)[C@@](O)(O2)C(=O)C(=O)N2CCCC[C@H]2C(=O)O[C@H]([C@H](C)C[C@@H]2CC[C@@H](OCCO)[C@H](OC)C2)CC(=O)[C@H](C)/C=C(\\C)[C@@H](O)[C@@H](OC)C(=O)[C@H](C)C[C@H](C)/C=C/C=C/C=C/1C", "-6%"),
    ("CC(=O)Nc1cccc(-n2c(=O)n(C3CC3)c(=O)c3c(Nc4ccc(I)cc4F)n(C)c(=O)c(C)c32)c1", "-6%"),
    ("COc1cc(Nc2c(C#N)cnc3cc(OCCCN4CCN(C)CC4)c(OC)cc23)c(Cl)cc1Cl", "-4.35%"),
]

====

%-inhibition of NEK9 reference
# Target of assay: panel of more than 300 wild-type and mutant kinases (313 kinase panel) (Homo sapiens)
# Sequence (Q8TD19 1-979): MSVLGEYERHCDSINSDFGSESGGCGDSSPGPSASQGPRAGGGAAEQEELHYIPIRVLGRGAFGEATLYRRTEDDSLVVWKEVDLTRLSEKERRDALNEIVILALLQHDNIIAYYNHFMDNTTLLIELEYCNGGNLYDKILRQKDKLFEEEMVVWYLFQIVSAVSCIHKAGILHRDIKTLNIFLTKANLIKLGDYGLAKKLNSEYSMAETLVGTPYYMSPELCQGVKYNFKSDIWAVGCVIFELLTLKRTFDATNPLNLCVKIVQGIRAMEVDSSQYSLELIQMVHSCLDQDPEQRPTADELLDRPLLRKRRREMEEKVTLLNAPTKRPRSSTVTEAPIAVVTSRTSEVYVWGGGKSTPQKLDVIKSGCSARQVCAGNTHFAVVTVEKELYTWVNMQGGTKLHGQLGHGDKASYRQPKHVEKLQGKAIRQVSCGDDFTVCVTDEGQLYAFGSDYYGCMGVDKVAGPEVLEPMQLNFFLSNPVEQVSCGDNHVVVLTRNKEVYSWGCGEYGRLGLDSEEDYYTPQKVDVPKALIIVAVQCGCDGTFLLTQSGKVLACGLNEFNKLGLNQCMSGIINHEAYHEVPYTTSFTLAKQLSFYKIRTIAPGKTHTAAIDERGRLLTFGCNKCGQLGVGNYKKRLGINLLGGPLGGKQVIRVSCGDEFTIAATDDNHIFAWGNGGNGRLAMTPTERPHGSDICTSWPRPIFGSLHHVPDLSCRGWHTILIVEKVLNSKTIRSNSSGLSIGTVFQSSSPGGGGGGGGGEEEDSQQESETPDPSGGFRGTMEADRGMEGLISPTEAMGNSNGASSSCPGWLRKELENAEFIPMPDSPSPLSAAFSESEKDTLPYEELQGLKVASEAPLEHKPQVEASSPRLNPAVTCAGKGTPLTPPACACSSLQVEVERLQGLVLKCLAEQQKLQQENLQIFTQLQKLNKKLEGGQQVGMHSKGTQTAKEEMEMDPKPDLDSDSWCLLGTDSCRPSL
# Assay procedure: Kinase profiling in a biochemical assay panel (mobility shift assays and ELISA), %-inhibition at 1 μM; selectivity entropy
# Measurement conditions: kinase NEK9; 1 μM

# Molecule, %-inhibition of NEK9
records = [
    ("COc1cc2c(Nc3ccc(Br)cc3F)ncnc2cc1OCC1CCN(C)CC1 [vandetanib]", "-7%"),
    ("CNC(=O)c1cc(Oc2ccc(NC(=O)Nc3ccc(Cl)c(C(F)(F)F)c3)c(F)c2)ccn1 [regorafenib]", "2.52%"),
    ("CC(C)(C)c1nc(-c2cccc(NS(=O)(=O)c3c(F)cccc3F)c2F)c(-c2ccnc(N)n2)s1 [dabrafenib]", "101%"),
    ("Cc1cn(-c2cc(NC(=O)c3ccc(C)c(Nc4nccc(-c5cccnc5)n4)c3)cc(C(F)(F)F)c2)cn1 [nilotinib]", "-21%"),
]
